Let's look at some IC50 data for UniProt O00238 that I collected from the literature.
attributeMeasured: IC50 (nM)

a. COc1ccc(-c2cnc3c(-c4ccnc5ccccc45)cnn3c2)cc1
b. NC(=O)c1ccc(-c2cnc(N)c(C(=O)N[C@H]3CC[C@@H](O)CC3)c2)cc1
c. Nc1ncc(-c2ccc(CN3CCC(N4CCOCC4)CC3)cc2Cl)nc1C(=O)NC12CCC(O)(CC1)CC2
Going from lowest to highest recorded IC50, rank the entries listed above. // format: requested-order list of labels
a, c, b
(a: 56.9 nM, c: 2100 nM, b: 10000 nM)

1. CC(C)CN1c2ccc(-c3cncc(-c4ccc(=O)n(C(C)C)c4)c3)cc2CS1(=O)=O
2. c1cc(N2CCOCC2)ccc1-c1cnc2c(-c3cn[nH]c3)cnn2c1
Would you mind telling me which has the lower recorded IC50 between 1 and 2 ? Answer with the label corresponding to your selection.
2
